Could you please report measured inhibition at 10 µM for the items listed next?
# target-under-test: PI3K (p110α/p85α) (Homo sapiens (Human), UniProt P42336)
# Sequence (P42336 whole entry): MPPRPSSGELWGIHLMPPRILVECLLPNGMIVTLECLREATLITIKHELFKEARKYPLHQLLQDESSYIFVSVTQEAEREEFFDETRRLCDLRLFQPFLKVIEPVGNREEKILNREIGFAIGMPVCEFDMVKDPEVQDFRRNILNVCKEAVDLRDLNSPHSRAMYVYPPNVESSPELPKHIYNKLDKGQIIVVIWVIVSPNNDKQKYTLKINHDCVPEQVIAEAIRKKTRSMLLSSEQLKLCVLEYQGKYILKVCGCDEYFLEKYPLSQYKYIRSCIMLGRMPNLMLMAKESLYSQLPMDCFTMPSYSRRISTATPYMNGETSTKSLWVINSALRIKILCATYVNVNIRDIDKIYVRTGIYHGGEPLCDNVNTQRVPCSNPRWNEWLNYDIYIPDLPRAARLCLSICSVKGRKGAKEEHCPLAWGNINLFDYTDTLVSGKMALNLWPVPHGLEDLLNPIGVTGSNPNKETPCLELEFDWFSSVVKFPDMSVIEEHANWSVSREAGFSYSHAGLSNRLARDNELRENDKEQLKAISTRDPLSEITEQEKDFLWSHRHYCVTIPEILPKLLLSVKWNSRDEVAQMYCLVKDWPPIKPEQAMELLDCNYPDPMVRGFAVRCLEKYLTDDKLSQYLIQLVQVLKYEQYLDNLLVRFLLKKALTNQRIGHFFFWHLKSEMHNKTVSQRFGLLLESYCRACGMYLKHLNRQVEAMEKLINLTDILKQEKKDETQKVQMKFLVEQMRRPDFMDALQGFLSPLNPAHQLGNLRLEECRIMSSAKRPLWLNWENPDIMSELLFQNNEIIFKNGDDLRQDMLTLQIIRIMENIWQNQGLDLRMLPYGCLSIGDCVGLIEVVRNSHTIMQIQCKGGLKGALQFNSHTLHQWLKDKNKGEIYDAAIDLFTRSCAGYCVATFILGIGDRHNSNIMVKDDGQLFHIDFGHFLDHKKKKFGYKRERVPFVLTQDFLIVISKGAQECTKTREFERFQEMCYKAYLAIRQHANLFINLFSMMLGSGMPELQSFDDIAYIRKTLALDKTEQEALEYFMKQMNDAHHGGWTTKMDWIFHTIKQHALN
# Sequence (P27986 whole entry partner): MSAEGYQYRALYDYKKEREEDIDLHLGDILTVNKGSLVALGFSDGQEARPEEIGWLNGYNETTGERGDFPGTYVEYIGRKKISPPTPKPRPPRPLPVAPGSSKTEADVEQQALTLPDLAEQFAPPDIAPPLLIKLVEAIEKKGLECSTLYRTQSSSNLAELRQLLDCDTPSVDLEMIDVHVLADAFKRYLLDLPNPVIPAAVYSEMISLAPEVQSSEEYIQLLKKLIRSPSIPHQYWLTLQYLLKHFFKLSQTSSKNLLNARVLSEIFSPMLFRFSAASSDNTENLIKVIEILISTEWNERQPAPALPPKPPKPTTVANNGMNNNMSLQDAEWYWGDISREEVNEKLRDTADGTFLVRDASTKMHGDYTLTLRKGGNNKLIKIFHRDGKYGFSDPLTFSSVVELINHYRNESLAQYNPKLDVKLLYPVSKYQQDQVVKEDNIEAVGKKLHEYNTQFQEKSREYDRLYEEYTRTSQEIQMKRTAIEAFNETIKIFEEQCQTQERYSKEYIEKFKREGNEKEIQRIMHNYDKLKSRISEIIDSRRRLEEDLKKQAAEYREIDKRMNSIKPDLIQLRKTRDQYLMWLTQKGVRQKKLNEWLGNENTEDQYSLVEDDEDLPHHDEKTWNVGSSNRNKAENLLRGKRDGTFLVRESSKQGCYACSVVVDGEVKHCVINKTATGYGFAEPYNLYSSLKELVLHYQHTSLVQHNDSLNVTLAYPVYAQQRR
# protocol-notes: PI3K Activity Assay (ADP Hunter Plus)
# Type: biochemical
# conditions: 10 μM compound concentration; read-out: Inhibition (%) of PI3Kα activity, Inh (%) at 10 μM
One number for each entry, in %.

Previously resolved entries follow.
Request the reported inhibition at 10 µM associated with `COc1ccc(-c2nn3c(-c4cnc(N)c(C(F)(F)F)c4)c(C)nc3s2)cc1OC`
97

Consider the compound shown here: `COc1ccc(-c2nn3c(-c4cccnc4)c(C)nc3s2)cc1OC` What is its recorded inhibition at 10 µM?
81

// lookup inhibition at 10 µM for `COc1ccc(-c2nn3c(-c4cnc(N)nc4)c(C)nc3s2)cc1OC`
100

What value of inhibition at 10 µM has been reported for the following compound? `COc1ccc(-c2nn3c(-c4ccc(OC)c(OC)c4)c(C)nc3s2)cc1OC`
85

Further cases:
GET /values?readout=inhibition at 10 µM&item= `COc1ccc(-c2nn3c(-c4ccc(OC)c(OC)c4)cnc3s2)cc1OC`
97

----------
Please respond with reported IC50 for every item in the list.
# target-under-test: PI3K (p110α/p85α) (Homo sapiens (Human), UniProt P42336)
# protocol-notes: PI3K Activity Assay (ADP Hunter Plus)
# Format: biochemical
# conditions: read-out: IC50 [μM] PI3Kα
# Method: The kinase activity was measured by using the commercial ADP Hunter™ Plus assay available from DiscoveRx (#33-016), which is a homogeneous assay to measure the accumulation of ADP, a universal product of kinase activity. […] Fluorescence counts were read in a Victor instrument (Perkin Elmer) with the recommended settings (544 and 580 nm as excitation and emission wavelengths, respectively). […]
Answers are plain numbers, in µM.

Given the entry `Nc1ncc(-c2cnc3sc(-c4ccc5[nH]ccc5c4)nn23)cc1C(F)(F)F` , report its measured IC50.
0.676

What value of IC50 has been recorded for this entry: `CCn1cc(-c2nn3c(-c4cnc(N)c(C(F)(F)F)c4)cnc3s2)cn1`
0.095

Requested field: IC50. Item: `COc1ccc(-c2c(C)nc3sc(-c4ccc(OC)c(OC)c4)nn23)cn1`
2.88

May I ask what IC50 has been recorded for `COc1ccc(-c2nn3c(-c4cnc(N5CCN(C)CC5)c(C(F)(F)F)c4)cnc3s2)cc1OC` ?
0.447

Let us examine a further case.
Looking for the measured IC50 of `COc1cncc(-c2nn3c(-c4cnc(N)c(C(F)(F)F)c4)cnc3s2)c1` , can you help?
0.021

----------
# target-under-test: PI3K (p110α/p85α) (Homo sapiens (Human))
# protocol-notes: PI3K Activity Assay (ADP Hunter Plus)
# Format: biochemical
# conditions: read-out: IC50 [μM] PI3Kα
Record form. Attribute: IC50. Fill in for each entry.

Example entries begin here.
So what's the measured IC50 for this one? `Nc1ncc(-c2cnc3sc(-c4cccc(S(=O)(=O)N5CCOCC5)c4)nn23)cc1C(F)(F)F`
0.437 µM

Consider the compound shown here: `COc1ccc(-c2nn3c(-c4cnc(N)c(C(F)(F)F)c4)cnc3s2)cc1` What is its recorded IC50?
0.454 µM

I'd like to know its IC50. The compound in question is `COC(=O)c1ccc(-c2cnc3sc(-c4cnc(N)c(C(F)(F)F)c4)nn23)cc1OC`
0.018 µM

Entry `COc1ccc(-c2nn3c(-c4ccc(C#N)nc4)cnc3s2)cc1OC` : reported IC50 = ?
0.063 µM

Recorded IC50 for `Cc1ccc(-c2nn3c(-c4cnc(N)c(C(F)(F)F)c4)cnc3s2)cn1` , please?
0.062 µM

Respectfully, I request IC50 for each entry included below.
1. CS(=O)(=O)c1cccc(-c2nn3c(-c4cnc(N)c(C(F)(F)F)c4)cnc3s2)c1
2. COc1cc(-c2nn3c(-c4cnc(N)nc4)cnc3s2)ccc1OC1CCNCC1
3. COc1ccc(-c2nn3c(-c4cnc(N)c(C#N)c4)cnc3s2)cc1OC

1: 0.05 µM; 2: 0.115 µM; 3: 0.033 µM

----------
# target-under-test: PI3K (p110α/p85α) (Homo sapiens (Human))
# protocol-notes: PI3K Activity Assay (ADP Hunter Plus)
# Type: biochemical
# conditions: read-out: Biological activity in PI3Kα, semi-quantitative
pIC50: −log10 of the molar value.
measured-attribute: pIC50

// below: answered compounds
Which pIC50 value is on record for N#Cc1cccc(-c2nn3c(-c4cnc(N)c(C(F)(F)F)c4)cnc3s2)c1 [Example 29] ?
> 7.00

For the compound COc1ccc(-c2nn3c(-c4cnc(N5CCN(C(=O)OC(C)(C)C)CC5)nc4)cnc3s2)cc1OC [Example 19] , what pIC50 is on record?
4.30 to 6.00

Any idea what its pIC50 is? The compound is COc1ccc(-c2nn3c(-c4cnc(N)c(C(F)(F)F)c4)cnc3s2)cc1 [Example 30]
6.00 to 7.00

Recorded pIC50 of Cc1ccncc1-c1nn2c(-c3cnc(N)c(C(F)(F)F)c3)cnc2s1 [Example 37] , please.
> 7.00

Could you share which pIC50 value was measured for Nc1ncc(-c2cnc3sc(-c4cccnc4)nn23)cc1C(F)(F)F [Example 32] ?
> 7.00

Quick one: pIC50 for Nc1ncc(-c2nn3c(-c4ccc(F)nc4)cnc3s2)cc1C(F)(F)F [Example 50] ?
6.00 to 7.00

# per-item lookup of pIC50; items listed below
1. COc1ccc(-c2nn3c(-c4cnc(N)nc4)c(C)nc3s2)cc1OC [Example 7]
2. CN(C)c1cccc(-c2nn3c(-c4cnc(N)c(C(F)(F)F)c4)cnc3s2)c1 [Example 42]
3. NC(=O)c1cccc(-c2nn3c(-c4cnc(N)c(C(F)(F)F)c4)cnc3s2)c1 [Example 35]
4. COc1cc(-c2nn3c(-c4cnc(N)nc4)cnc3s2)ccc1OC1CCNCC1 [Example 15]
5. CS(=O)(=O)c1ccc(-c2cnc3sc(-c4cnc(N)c(C(F)(F)F)c4)nn23)cc1 [Example 49]
6. COc1ccc(-c2nn3c(-c4ccc(OC)c(OC)c4)c(C)nc3s2)cc1OC [Example 6]

1. 6.00 to 7.00
2. 6.00 to 7.00
3. > 7.00
4. 6.00 to 7.00
5. > 7.00
6. 6.00 to 7.00

Please state, for each entry, its recorded pIC50.
1. COc1cccc(-c2nn3c(-c4cnc(N)c(C(F)(F)F)c4)cnc3s2)c1 [Example 28]
2. COc1ccc(-c2nn3c(-c4cccnc4)c(C)nc3s2)cc1OC [Example 4]
3. Nc1ncc(-c2cnc3sc(-c4ccc(S(=O)(=O)N5CCOCC5)cc4)nn23)cc1C(F)(F)F [Example 44]
4. COc1ccc(-c2nn3c(-c4cnc(NCCN(C)C)nc4)cnc3s2)cc1OC [Example 26]
5. CC(C)(C)OC(=O)N1CCC2(CC1)C(=O)Nc1ccc(-c3nn4c(-c5cnc(N)c(C(F)(F)F)c5)cnc4s3)cc12 [Example 38]
6. COc1ccc(-c2nn3c(-c4cnc(N)c(C#N)c4)cnc3s2)cc1OC [Example 18]
7. COc1ccc(-c2nn3c(-c4cnc(N5CCNCC5)nc4)cnc3s2)cc1OC [Example 20]
8. COc1ccc(-c2cnc3sc(-c4ccc(OC5CCNCC5)c(OC)c4)nn23)cn1 [Example 13]

1. 6.00 to 7.00
2. 4.30 to 6.00
3. 6.00 to 7.00
4. 6.00 to 7.00
5. 4.30 to 6.00
6. > 7.00
7. 6.00 to 7.00
8. 4.30 to 6.00

----------
Field: inhibition at 10 µM. Provide a value for each of the compounds that follow.
# target-under-test: PI3K (p110α/p85α) (Homo sapiens (Human))
# protocol-notes: PI3K Activity Assay (ADP Hunter Plus)
# Assay type: biochemical
# conditions: 10 μM compound concentration; read-out: Inhibition (%) of PI3Kα activity, Inh (%) at 10 μM
One number for each entry, in %.

May I ask what inhibition at 10 µM has been recorded for `COc1ccc(-c2nn3c(-c4ccc(C#N)nc4)c(C)nc3s2)cc1OC` ?
100

For each of the compounds below, state inhibition at 10 µM.
1. COc1cc(-c2nn3c(-c4cnc(N)c(C(F)(F)F)c4)c(C)nc3s2)ccc1OCCNC(=O)OC(C)(C)C
2. COc1ccc(-c2c(C)nc3sc(-c4ccc(OC)c(OC)c4)nn23)cn1
3. COc1ccc(-c2nn3c(-c4ccc(S(C)(=O)=O)c(F)c4)c(C)nc3s2)cc1OC

1. 77
2. 70
3. 68

----------
Please go through the items and note down their IC50.
# target-under-test: PI3K (p110α/p85α) (Homo sapiens (Human), UniProt P42336)
# protocol-notes: PI3K Activity Assay (ADP Hunter Plus)
# Format: biochemical
# conditions: read-out: Biological activity in PI3Kα, semi-quantitative

These recorded examples may help you get a feel for the data.
If you can, please state the reported IC50 value of COc1cncc(-c2cnc3sc(-c4ccc(OC)c(OC)c4)nn23)c1 [Example 27] .
< 100 nM

Given the compound COc1cc(-c2nn3c(-c4cnc(N)c(C(F)(F)F)c4)c(C)nc3s2)ccc1OCC(=O)N(C)C [Example 10] , what is its reported IC50?
1000 to 50000 nM

Hi there! I need IC50 for each item below, if you can.
1. Nc1ncc(-c2cnc3sc(-c4cccc(S(=O)(=O)N5CCOCC5)c4)nn23)cc1C(F)(F)F [Example 45]
2. COc1ccc(-c2nn3c(-c4ccc(C#N)nc4)cnc3s2)cc1OC [Example 17]
3. COc1ccc(-c2nn3c(-c4cnc(N5CCNCC5)c(C(F)(F)F)c4)cnc3s2)cc1OC [Example 22]
4. CS(=O)(=O)c1cccc(-c2nn3c(-c4cnc(N)c(C(F)(F)F)c4)cnc3s2)c1 [Example 41]
5. COc1ccc(-c2nn3c(-c4cnc([S+](C)[O-])nc4)cnc3s2)cc1OC (stereo not drawn) [Example 25]
6. COc1ccc(-c2nn3c(-c4cnc(N)c(C(F)(F)F)c4)c(C)nc3s2)cc1OC [Example 3]
7. COc1ccc(-c2nn3c(-c4cnc(N5CCN(C)CC5)nc4)cnc3s2)cc1OC [Example 21]

1: 100 to 1000 nM; 2: < 100 nM; 3: 100 to 1000 nM; 4: < 100 nM; 5: 100 to 1000 nM; 6: < 100 nM; 7: 100 to 1000 nM
